# study target: mouse TREM2 truncated stalk peptide (aa 149-163) (mouse) (UniProt Q99NH8)
# procedure details: ELISA on biotinylated peptide captured by streptavidin; A450 normalised to isotype control
quantity measured: fold over background (A450) (fold)
Give the value in fold but do not write fold after it.

Q) Form field: reported fold over background (A450) of CL0020173 (antibody, V domains shown) VH: EVKLLESGGGLVQPGSSMRLSCAASGFTFTDFYMNWIRQPAGRAPEWLGFFRNIVDGYTTEYNPSVKGRFTISRDNTQNMLYLQMNTLRAEDTATYYCARSGYSSYIYGGTFAYWGQGTLVTVSS VL: ETVMTQSPTSMSTSIGERVTLNCKASQSVGIHVDWYQQTPGQSPKLLIYGASNRHTGVPDRFTGSGFGRDFTLTISNVEAEDLAVYYCLQYGSIPWTFGGGTKLELK
A) 1.2

Q) Form field: reported fold over background (A450) of CL0020195 (antibody, V domains shown) VH: EVQLVESGGGLVQPGRSMMLSCSASGFTFSNYHMAWVRQAPTTGLEWVASITTGSGNTYYRHSVKGRFTISRDNAKSTLYLQMDSLRSEDTASYYCARRWYGGYEGYYFDYWGQGVMVTVSS VL: DIQMTQSPSLLSASVGDRVTLSCKAGQNVNNYLAWYQQKLGEAPKLLIYNANILQTGFPSRFSGTGSGTDFTLTISSLQPEDVATYFCQQYNSWTTFGGGTKLELK
A) 1.2
